# Target Entity: NAD-dependent deacetylase Sirtuin 1 (human)
# Measurement Description: primary screen, percent inhibition; higher = more effect of the substance
# Set-up: mean of n = 4
# Measurement Context: 10 µM
Consider the following compounds and their measured TSA(with NAD+) / Inhibitory assay (Promega kit) / Mean (%) readings.
Measure Name: TSA(with NAD+) / Inhibitory assay (Promega kit) / Mean (%)

# Given Smiles, Recorded Result
rows = [
    ("NC(=O)C1CCN(c2nc(-c3cccnc3)nc3sc4c(c23)CCCC4)CC1", 39.7),
    ("O=C1NC(=O)c2ccccc2/C1=C\\NNC(=O)C12CC3CC(CC(C3)C1)C2", 27.6),
    ("COc1ccc2cc(/C=C/C(=O)Nc3ccc(C(N)=O)cc3)ccc2c1", 19.8),
    ("Cc1cccc(NS(=O)(=O)c2cccc(C(=O)OCC(=O)NC(=O)NC34CC5CC(CC(C5)C3)C4)c2)c1", 31),
    ("Cc1ccc(N(C)S(=O)(=O)c2cccc(C(=O)Nc3ccc4c(c3)C(=O)N(C)C4=O)c2)cc1", 25),
]

* * *

# Target Entity: NAD-dependent deacetylase Sirtuin 1 (human)
# Measurement Description: primary screen, percent inhibition; higher = more effect of the substance
# Set-up: mean of n = 4
# Measurement Context: 10 µM
Assign a class from recorded TSA(without NAD+) / Inhibitory assay (Promega kit) / Mean (%); defined classes: lowest (below 10%), middle (10% to below 20%), highest (20% or more)

# Compound, Class Name
records = [
    ("CCn1c2ccccc2c2cc(NC(=O)C(C)OC(=O)c3cccc(S(=O)(=O)Nc4ccc(Cl)cc4)c3)ccc21 (stereo not shown)", "highest"),
    ("O=C1/C(=C\\c2cc(Br)cc(Br)c2O)CC/C1=C\\c1cc(Br)cc(Br)c1O", "highest"),
    ("NC1=Nc2nc3ccccc3n2C(c2ccc(-c3ccc(C(=O)O)cc3)o2)N1 (stereo not shown)", "middle"),
    ("O=C(CCc1c[nH]c2ccccc12)Nc1nnc(-c2ccccc2)o1", "middle"),
    ("COC(=O)c1cc(-c2csc(NC(=O)c3cccc(NC(=O)c4cnoc4C)c3)n2)c[nH]1", "highest"),
    ("Cc1cc(F)ccc1N1CCCC(Nc2ccc3nnnn3n2)C1 (stereo not shown)", "lowest"),
    ("Cc1nc(N2CCC(C(N)=O)CC2)c2c3c(sc2n1)CCCCC3", "middle"),
    ("Cc1sc2nc(-c3cccs3)nc(N3CCC(C(N)=O)CC3)c2c1C", "lowest"),
    ("O=C1/C(=C/c2cnn(-c3ccccc3)c2)Oc2cc(O)ccc21", "lowest"),
]

* * *

Readings of TSA(without NAD+) / Inhibitory assay (Promega kit) / Mean (%) for the listed molecules
# Target Entity: NAD-dependent deacetylase Sirtuin 1 (human, UniProt Q96EB6)
# Sequence (Q96EB6 2-747 limits assumed): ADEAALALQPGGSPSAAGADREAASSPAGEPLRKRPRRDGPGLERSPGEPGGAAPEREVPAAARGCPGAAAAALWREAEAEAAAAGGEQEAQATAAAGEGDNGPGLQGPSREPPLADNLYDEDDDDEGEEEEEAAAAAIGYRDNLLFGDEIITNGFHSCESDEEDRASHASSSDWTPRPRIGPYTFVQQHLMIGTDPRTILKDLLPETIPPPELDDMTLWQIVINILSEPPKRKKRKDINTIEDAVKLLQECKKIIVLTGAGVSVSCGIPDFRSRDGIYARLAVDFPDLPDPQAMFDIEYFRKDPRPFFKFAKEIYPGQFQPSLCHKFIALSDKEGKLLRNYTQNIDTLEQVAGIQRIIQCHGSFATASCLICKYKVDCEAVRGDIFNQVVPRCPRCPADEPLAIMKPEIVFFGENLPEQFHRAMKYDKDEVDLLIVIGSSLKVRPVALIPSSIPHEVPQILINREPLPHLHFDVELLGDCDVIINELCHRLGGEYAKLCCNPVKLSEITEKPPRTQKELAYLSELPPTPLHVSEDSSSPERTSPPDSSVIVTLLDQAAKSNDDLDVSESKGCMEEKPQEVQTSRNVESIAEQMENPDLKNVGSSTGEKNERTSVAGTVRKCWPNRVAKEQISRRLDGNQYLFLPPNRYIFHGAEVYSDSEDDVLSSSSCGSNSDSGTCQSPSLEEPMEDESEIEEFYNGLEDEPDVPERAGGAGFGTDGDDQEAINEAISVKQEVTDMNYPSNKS
# Measurement Description: primary screen, percent inhibition; higher = more effect of the substance
# Set-up: mean of n = 4
# Measurement Context: 10 µM
Measure Name: TSA(without NAD+) / Inhibitory assay (Promega kit) / Mean (%)

# Molecule, Recorded Result
records = [
    ("COc1ccc(N(C)S(=O)(=O)c2cccc(C(=O)Nc3ccc(Br)c(C(F)(F)F)c3)c2)cc1", 5.07),
    ("Cc1ccc(C(=O)Nc2nc3ccc(NS(=O)(=O)c4ccc5c(c4)CCC(=O)N5)cc3s2)s1", 31.3),
    ("COc1ccc(N(C)S(=O)(=O)c2cccc(C(=O)Nc3ccc4ccccc4c3)c2)cc1", -4.02),
    ("Cc1ccc([N+](=O)[O-])cc1S(=O)(=O)Nc1ccc(C(=O)OC(C)C(=O)NC23CC4CC(CC(C4)C2)C3)cc1 (stereo not drawn)", -3.81),
    ("Cc1ccc(N(C)S(=O)(=O)c2cccc(C(=O)Nc3ccc(C(N)=O)cc3)c2)cc1", 0.783),
    ("O=C(NC(=S)Nc1ccc(-c2nc3ccccc3[nH]2)cc1)C12CC3CC(CC(C3)C1)C2", 22.7),
    ("NC(=O)C1CCN(c2nc(-c3cccs3)nc3sc4c(c23)CCCC4)CC1", 0.0174),
    ("Cc1ccc(C(=O)Nc2ccc(NC(=O)NCC3CCCO3)cc2)cn1 (stereo not drawn)", -1.1),
    ("NC(=O)c1cccc(NC(=O)c2cc3c(s2)-c2ccccc2CC3)c1", 4.33),
]
